target system: T1, IMPα7 lacking the IBB domain (residues 73-536) (UniProt O60684 73-536)
T1 construct: also called ΔIBB-IMPα7; importin alpha 7
T1 sequence (O60684 73-536): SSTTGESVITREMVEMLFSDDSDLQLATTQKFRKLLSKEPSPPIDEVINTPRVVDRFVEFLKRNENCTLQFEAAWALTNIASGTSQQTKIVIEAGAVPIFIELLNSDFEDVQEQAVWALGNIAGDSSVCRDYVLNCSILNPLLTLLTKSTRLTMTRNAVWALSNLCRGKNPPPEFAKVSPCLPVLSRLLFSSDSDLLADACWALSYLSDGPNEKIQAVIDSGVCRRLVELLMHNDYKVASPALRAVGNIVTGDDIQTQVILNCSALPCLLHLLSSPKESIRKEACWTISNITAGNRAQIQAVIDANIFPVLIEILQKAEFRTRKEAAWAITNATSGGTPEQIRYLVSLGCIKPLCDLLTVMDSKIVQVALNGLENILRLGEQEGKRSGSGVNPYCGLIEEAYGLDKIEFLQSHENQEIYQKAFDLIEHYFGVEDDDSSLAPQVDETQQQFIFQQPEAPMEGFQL
run description: fluorescence polarisation
protocol conditions: both partners purified
Where no end group is shown, it is not given here.
reported metric: pKd
To interpret pKd, take it as minus log10 of a concentration measured in moles per litre.

The binder RKARKRSHSPTKKLRYVKRRF (also: FITC-tagged) [FITC-tagged MERS-CoV ORF4b NLS peptide (residues 19-39), wild type] showed pKd equal to 8.72
